Test system: S. aureus strain USA300-0114
Test Protocol: AK assay 384-well format, Prestwick library screening
Assay type: cell-based, Staphylococcus aureus
Condition Parameters: Staphylococcus aureus, USA300, 3 h; 50 μM final drug concentration; planktonic; cutoff for positive 3-fold increase; read-out: AK-based Prestwick Library Screening Results, S. aureus (fold increase in extracellular AK activity)
Counter-ions that a name gives are not always drawn.
Property Measured: fold induction at 50 µM
Reply with the value as a number alone.

Example cases with answers are listed next.
Sample NC(=O)CN1CCCC1=O — what was its fold induction at 50 µM?
1

Sample CO[C@H]1/C=C/O[C@@]2(C)Oc3c(C)c(O)c4c(O)c(c(/C=N/N5CCN(C)CC5)c(O)c4c3C2=O)NC(=O)/C(C)=C\C=C\[C@H](C)[C@H](O)[C@@H](C)[C@@H](O)[C@@H](C)[C@H](OC(C)=O)[C@@H]1C — what was its fold induction at 50 µM?
0.8

Sample CC(=O)SCC(Cc1ccccc1)C(=O)NCC(=O)OCc1ccccc1 (centres unmarked) — what was its fold induction at 50 µM?
1.9

Sample Cc1cc(N)c2ccccc2[n+]1CCCCCCCCCC[n+]1c(C)cc(N)c2ccccc21 [Dequalinium dichloride] — what was its fold induction at 50 µM?
1.2

Sample CC(C)(CO)[C@@H](O)C(=O)NCCC(=O)O [calcium salt monohydrate] — what was its fold induction at 50 µM?
1.1

Sample CC(=O)OCC(=O)[C@@]1(OC(C)=O)[C@@H](C)C[C@H]2[C@@H]3C[C@H](F)C4=CC(=O)C=C[C@]4(C)[C@@]3(F)[C@@H](O)C[C@@]21C [Diflorasone Diacetate] — what was its fold induction at 50 µM?
1.1

Sample CN(C)CCC(c1ccc(Br)cc1)c1ccccn1 (centres unmarked) [Brompheniramine maleate] — what was its fold induction at 50 µM?
1.1

Sample CCc1cc(C(N)=S)ccn1 [Ethionamide] — what was its fold induction at 50 µM?
1.3

More entries:
Sample COc1ccc(C[C@H](N)C(=O)N[C@H]2[C@@H](O)[C@H](n3cnc4c(N(C)C)ncnc43)O[C@@H]2CO)cc1 [Puromycin dihydrochloride] — what was its fold induction at 50 µM?
1.1

Sample CN1[C@@H]2CC[C@H]1C[C@@H](OC(=O)c1c[nH]c3ccccc13)C2 [Tropisetron HCl] — what was its fold induction at 50 µM?
0.9

Sample CCOc1ccc(NC(C)=O)cc1 — what was its fold induction at 50 µM?
0.8

Sample COc1cc(NC(C)CCCN)c2ncccc2c1 (centres unmarked) [Primaquine diphosphate] — what was its fold induction at 50 µM?
2.1

Sample C=CCN1CCCC1CNC(=O)c1cc2[nH]nnc2cc1OC (centres unmarked) [Alizapride HCl] — what was its fold induction at 50 µM?
1

Sample CCc1oc2ccccc2c1C(=O)c1cc(Br)c(O)c(Br)c1 — what was its fold induction at 50 µM?
0.4

Just for reference, patent US10004701B2 is where these values come from.
